Values were extracted from the supplement of paper PMC6757056.

B1: library; a variant is named by its letters at N, in order (parent)
chain: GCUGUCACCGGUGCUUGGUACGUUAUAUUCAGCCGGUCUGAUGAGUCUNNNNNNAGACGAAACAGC

Variants of: B1
Assay: normalized RNA/DNA level with ligand (relative to sTRSVctl = 100) (log10 (% of sTRSVctl)); HEK293T overexpressing SLC46A1; ligand concentration (+) RNA-Seq: 6 mM; higher = less ribozyme self-cleavage, higher mRNA level
Conditions: with (6R,S)-folinic acid; ligand present: yes
normalized RNA/DNA level with ligand (log10) for assorted variants
// no unit, no text: just the number

# alteration, endpoint-value
data = [
    ("GGACGA", 2.04),
]

Request: Look up normalized RNA/DNA level with ligand (log10): `ACGGCG`
Result: 2.05

Request: Repeat for the following variant: `AAGCUG`
Result: 2.05

Request: Repeat for the following variant: `AGCCCC`
Result: 2

Request: Repeat for the following variant: `UGGCUC`
Result: 2.04

Request: Repeat for the following variant: `GGGCAG`
Result: 2.05
